Biological target: T1, O11-AA
T1 chain: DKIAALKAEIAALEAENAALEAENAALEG
Experiment: two-hybrid library CCmax;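 note: natural log of median RNA to DNA barcode read ratio; higher means stronger binding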
measured.attribute: interaction score

1. DKIAALKAEIAALEAENAALEAENAALEG [O11-AA]	-0.752
2. DKNAALKAENAALEAEIAALEAEIAALEG [O1-AA]	-1.61
3. DENAALEAEIAALEAKIAALKAKIAALKG [4H1070-AA]	1.22
4. DEIAALEAKNAALKAKNAALKAKIAALKG [4H510-AA]	1.49
